Every entry's value here was drawn from paper doi:10.1101/2022.03.02.482641v1.

molecular target: hSARM1 (hSARM1 w.t., near-intact, 26ERL...GPT724) (Homo sapiens, UniProt Q6SZW1); assay: HPLC of ADPR formation; type: biochemical
Sequence (Q6SZW1 26-724): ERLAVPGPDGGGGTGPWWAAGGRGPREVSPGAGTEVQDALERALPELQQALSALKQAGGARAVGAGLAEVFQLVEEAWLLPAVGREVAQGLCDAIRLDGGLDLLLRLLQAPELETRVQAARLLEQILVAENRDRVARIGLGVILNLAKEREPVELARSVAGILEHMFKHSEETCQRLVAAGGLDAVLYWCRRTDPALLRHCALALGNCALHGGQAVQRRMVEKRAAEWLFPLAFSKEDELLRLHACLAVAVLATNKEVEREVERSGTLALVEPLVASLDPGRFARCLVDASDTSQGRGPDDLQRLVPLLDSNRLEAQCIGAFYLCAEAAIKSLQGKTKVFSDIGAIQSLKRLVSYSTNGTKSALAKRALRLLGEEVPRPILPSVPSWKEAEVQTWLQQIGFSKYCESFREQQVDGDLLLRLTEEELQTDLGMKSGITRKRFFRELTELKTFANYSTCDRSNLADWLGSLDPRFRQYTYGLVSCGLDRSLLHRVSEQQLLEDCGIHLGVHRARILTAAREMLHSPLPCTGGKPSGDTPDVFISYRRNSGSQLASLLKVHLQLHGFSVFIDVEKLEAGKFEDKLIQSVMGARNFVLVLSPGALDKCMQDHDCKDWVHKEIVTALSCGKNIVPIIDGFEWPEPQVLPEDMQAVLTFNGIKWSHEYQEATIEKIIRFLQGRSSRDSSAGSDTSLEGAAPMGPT
pIC50: −log10 of the molar value.
ENDPOINT: pIC50

O=c1[nH]sc2ccccc12 ... 5.49

(I) CCOC(=O)Cn1sc2nc(C)cc(C)c2c1=O
(II) N#Cc1c(O)nsc1Nc1ccccc1C(F)(F)F
(III) Cn1c(=O)c(I)c(O)c2ccccc21
Input: Task field, ranking: reported pIC50, descending order. Returns: the labels arranged in the requested order.
Output: I, II, III

====

Molecular target: zfSARM1 (zebrafish SARM1, zfSARM1 w.t.) (Danio rerio)
Sequence (F1QWA8 22-713): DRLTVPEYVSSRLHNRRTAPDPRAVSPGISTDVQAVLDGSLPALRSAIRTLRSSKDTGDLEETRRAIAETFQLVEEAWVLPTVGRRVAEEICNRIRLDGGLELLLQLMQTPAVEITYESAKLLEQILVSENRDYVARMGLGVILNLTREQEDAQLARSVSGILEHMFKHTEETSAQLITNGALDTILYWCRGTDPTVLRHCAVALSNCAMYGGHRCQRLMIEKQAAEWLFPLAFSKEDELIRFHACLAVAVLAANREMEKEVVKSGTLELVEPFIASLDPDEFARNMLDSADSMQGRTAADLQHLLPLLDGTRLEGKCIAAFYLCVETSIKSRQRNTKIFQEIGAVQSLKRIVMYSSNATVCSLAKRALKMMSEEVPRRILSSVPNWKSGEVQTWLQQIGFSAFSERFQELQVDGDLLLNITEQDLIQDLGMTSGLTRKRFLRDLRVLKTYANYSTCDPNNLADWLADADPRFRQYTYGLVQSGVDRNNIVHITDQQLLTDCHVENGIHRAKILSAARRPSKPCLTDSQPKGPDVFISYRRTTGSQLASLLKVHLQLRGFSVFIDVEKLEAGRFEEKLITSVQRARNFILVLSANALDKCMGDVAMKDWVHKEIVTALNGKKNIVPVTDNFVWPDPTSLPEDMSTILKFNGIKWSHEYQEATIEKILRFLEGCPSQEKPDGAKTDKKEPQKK
Test: HPLC of ADPR formation
ENDPOINT: EC50 (nM)
A number alone suffices; assume nM.

Input: Find the measured EC50 of N#Cc1c(O)nsc1Nc1ccccc1C(F)(F)F and report it.
Output: 2700
